# study target: CDK7/cyclinH/MAT1 trimeric complex (Homo sapiens)
# Sequence (P50613 whole entry): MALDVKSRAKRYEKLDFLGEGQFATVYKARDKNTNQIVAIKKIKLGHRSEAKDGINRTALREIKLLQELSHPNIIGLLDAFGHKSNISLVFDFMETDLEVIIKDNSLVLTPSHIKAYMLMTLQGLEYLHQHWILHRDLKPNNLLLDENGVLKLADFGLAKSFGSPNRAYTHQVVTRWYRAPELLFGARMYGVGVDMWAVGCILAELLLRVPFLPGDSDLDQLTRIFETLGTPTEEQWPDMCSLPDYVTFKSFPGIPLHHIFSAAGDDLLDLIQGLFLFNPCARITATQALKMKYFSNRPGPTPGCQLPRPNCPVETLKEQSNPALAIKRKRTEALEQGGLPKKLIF
# Sequence (P51946 whole entry partner): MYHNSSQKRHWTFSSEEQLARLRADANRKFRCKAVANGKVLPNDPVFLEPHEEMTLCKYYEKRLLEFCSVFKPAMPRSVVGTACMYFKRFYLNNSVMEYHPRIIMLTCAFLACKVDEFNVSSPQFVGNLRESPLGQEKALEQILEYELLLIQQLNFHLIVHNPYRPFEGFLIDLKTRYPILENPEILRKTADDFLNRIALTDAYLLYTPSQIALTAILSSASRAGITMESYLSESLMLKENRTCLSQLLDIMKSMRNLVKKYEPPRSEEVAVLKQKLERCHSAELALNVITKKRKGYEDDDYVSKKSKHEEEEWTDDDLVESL
# Sequence (P51948 whole entry partner): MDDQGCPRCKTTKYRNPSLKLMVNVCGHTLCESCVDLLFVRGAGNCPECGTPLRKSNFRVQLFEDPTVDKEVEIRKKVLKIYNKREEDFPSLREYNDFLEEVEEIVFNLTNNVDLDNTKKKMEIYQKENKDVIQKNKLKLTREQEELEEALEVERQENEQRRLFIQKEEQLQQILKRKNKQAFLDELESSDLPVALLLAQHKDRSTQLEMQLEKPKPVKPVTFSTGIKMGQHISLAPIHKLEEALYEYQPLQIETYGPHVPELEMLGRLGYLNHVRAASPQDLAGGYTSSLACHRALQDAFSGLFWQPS
# assay procedure: In vitro CDK7 assay, potency of irreversible covalent inhibitors (kinact/KI), coupled PK/LDH ADP readout at 340 nm
# settings: CDK7 (20 nM enz.) (KI, μM), 20 nM enzyme
quantity: Ki (µM)

C=CC(=O)N1CC(N2CCC(c3cc4c(c(C)n3)OCc3c(N5CCOCC5)ccnc3N4)CC2)C1 [Compound 217]: 0.101
C=CC(=O)N1CC[C@@H](N2CC(c3cc(C)c4c(c3)Nc3nccc(C5CCOCC5)c3CO4)C2)C1 (single isomer, unassigned) [Compound 196]: 0.0924
C=CC(=O)N1CC(N2CC[C@H](c3ccc4c(c3)Nc3nccc(N5CCOCC5)c3CO4)C(C)(C)C2)C1 (single isomer, unassigned) [Compound 67]: 0.0862
CC#CC(=O)N1CCC(N2CC(c3cc4c(c(C5CC5)n3)O[C@H](C)c3c(N5CCOCC5)ccnc3N4)C2)CC1 (single isomer, unassigned) [Compound 376]: 0.0467

I = C=CC(=O)N1CC(N2CCC(c3cc4c(c(C)n3)OCc3c(N5CCOCC5)ccnc3N4)N(C)CC2)C1 (stereo not drawn) [Compound 367]
II = C=CC(=O)N1CC(N2CCC(c3ccc4c(c3)Nc3nccc(N5CCOCC5)c3[C@H](C)O4)CC2)C1 (single isomer, unassigned) [Compound 92]
Of I and II , which carries the smaller reported Ki figure? Pick one; state its label.
I
